Reported combination Emax values follow for various compounds
# Tested on: SK-ES-1 (Ewing's Sarcoma)
# PROCEDURE SUMMARY: combination Emax (second highest fraction inhibited in the dose matrix, 72 h); higher = more inhibition; extreme values may be limits of the assay

COMPOUND	combination Emax
CC(=O)c1c(C)c2cnc(Nc3ccc(N4CCNCC4)cn3)nc2n(C2CCCC2)c1=O [Palbociclib] + Cn1cnc2c(F)c(Nc3ccc(Br)cc3Cl)c(C(=O)NOCCO)cc21 [Selumetinib] (first compound max 10 µM, 7x7, partner max 10 µM)	0.622
COc1cc2ncnc(Nc3ccc(F)c(Cl)c3)c2cc1OCCCN1CCOCC1 [Gefitinib] + CC(C)n1c(=O)n(C)c2cnc3cc(F)c(-c4ccc(OCCCN5CCCCC5)nc4)cc3c21 [AZD1390] (first compound max 10 µM, 7x7, partner max 0.3 µM)	0.341
NC1(C(=O)N[C@@H](CCO)c2ccc(Cl)cc2)CCN(c2ncnc3[nH]ccc23)CC1 [Capivasertib] + C[C@@H]1COCCN1C2=NC(=NC(=C2)C3(CC3)[S@](=N)(=O)C)C4=C5C=CNC5=NC=C4 [AZD6738] (first compound max 10 µM, 7x7, partner max 10 µM)	0.876
COc1cccc(OCCCN)c1-c1cc(Nc2cnc(C#N)cn2)n[nH]1 [Prexasertib] + C=CCn1c(=O)c2cnc(Nc3ccc(N4CCN(C)CC4)cc3)nc2n1-c1cccc(C(C)(C)O)n1 [AZD1775] (first compound max 1 µM, partner max 1 µM)	1
